# System: upland rice (Oryza sp., var. Tebonnet, RICE)
# Method Notes: Post-emerge test, crop safety
# Type: in vivo
# Protocol Conditions: post-emerge, 250 g ai/ha, 14 days after application, rating scale 0-100
Hi there, I'd appreciate the recorded phytotoxicity rating RICE for every entry that follows.

A selection of reference data follows.
Return phytotoxicity rating RICE measured with upland rice (Oryza sp., var. Tebonnet, RICE) given this molecule: COc1c(Cl)cc(F)c(-n2c(=O)cc(C(F)(F)F)n(C)c2=O)c1NC(=O)c1ccc(CCl)cc1 40

Next molecule up: COc1c(Cl)cc(F)c(-n2c(=O)cc(C(F)(F)F)n(C)c2=O)c1NC(=O)c1ccc(Cl)cc1 90

Next molecule up: COc1c(Cl)cc(F)c(-n2c(=O)cc(C(F)(F)F)n(C)c2=O)c1N(C(=O)c1ccc([N+](=O)[O-])cc1)C(=O)c1ccc([N+](=O)[O-])cc1 0

Give me phytotoxicity rating RICE for each of these molecules, listed below.
1. COc1c(Cl)cc(F)c(-n2c(=O)cc(C(F)(F)F)n(C)c2=O)c1N(C(=O)COc1ccccc1)C(=O)COc1ccccc1
2. COc1c(Cl)cc(F)c(-n2c(=O)cc(C(F)(F)F)n(C)c2=O)c1NC(=O)CC#N
3. COc1c(Cl)cc(F)c(-n2c(=O)cc(C(F)(F)F)n(C)c2=O)c1NC(=O)c1ccc(C#N)cc1
4. COc1c(Cl)cc(F)c(-n2c(=O)cc(C(F)(F)F)n(C)c2=O)c1NC(=O)COC(C)=O

1: 90; 2: 90; 3: 80; 4: 40
